The next entries give measured pIC50 for Acetylcholinesterase (Electrophorus electricus).
Just so you know, pIC50 here is -log10 of the concentration in molar units; reply with that number alone.

Known pIC50 results, listed for orientation:
O=C(CCOc1cccnc1)Nc1ccc2nc3c4[nH]c5ccccc5c4ccn3c(=O)c2c1 : 7.84
Cn1cc[n+](CCCC(=O)Nc2ccc3nc4c5[nH]c6ccccc6c5ccn4c(=O)c3c2)c1 : 7.93

Now look at this entry.
Summary line: "CN1CCN(CCC(=O)Nc2ccc3nc4c5[nH]c6ccccc6c5ccn4c(=O)c3c2)CC1" , Acetylcholinesterase (Electrophorus electricus), reported pIC50 = 6.85

====

The next entries give measured pIC50 for Cholinesterase (Equus caballus).
Just so you know, pIC50 here is -log10 of the concentration in molar units; reply with that number alone.

Known pIC50 results, listed for orientation:
CCN(CC)CC(=O)Nc1ccc2nc3c4[nH]c5ccccc5c4ccn3c(=O)c2c1 : 4.62
O=C(CNc1ccccc1)Nc1ccc2nc3c4[nH]c5ccccc5c4ccn3c(=O)c2c1 : 4.60

# compound "O=C(Cc1ccccc1)Nc1ccc2nc3c4[nH]c5ccccc5c4ccn3c(=O)c2c1" ; its pIC50 = 4.60

# compound "O=C(CC[n+]1ccccc1)Nc1ccc2nc3c4[nH]c5ccccc5c4ccn3c(=O)c2c1" ; its pIC50 = 5.37

# compound "CN1CCN(CC(=O)Nc2ccc3nc4c5[nH]c6ccccc6c5ccn4c(=O)c3c2)CC1" ; its pIC50 = 4.54
